Target: T1, human TSLP (human, UniProt Q969D9 29-159)
T1 construct: also called hTSLP; rhTSLP
Assay: SPR
Listed next: entries and their corresponding kon.
Hi! Could you send only the number? It should be in M⁻¹ s⁻¹, unit omitted.

| binder | kon [M⁻¹ s⁻¹] |
| --- | --- |
| BDG38.110 (antibody, V domains shown, IgG1) VH: QMQLVESGGGVVQPGRSLRLSCAASGFEFRTYGMHWVRQAPGKGLEWVAVIWDDGSNTHYADSVKGRFTITRDNSKNTLNLQMNSLRAEDTAVYYCVRAPQWYLTAEAFDLWGQGTMVTVSS VL: SYILTQPPSVSVAPGETTRITCGGNLIGAKLVHWYQQKPGQAPVLVIYDDSDRPSRIPERFSGSNIGNTATLTIEDVEAGDEADYYCQVWDYSSNHMVFGGGTKLTVL | 2.31e+06 |
| BDG38.091 (antibody, V domains shown, IgG1) VH: QMQLVESGGGVVQPGRSLTLSCAASGFEFRTYGMHWVRQAPGKGLEWLGVIWYDGSNTHYADSVKGRFTITRDNSKNTLNLQMNSLRVEDTAVYYCVRAPQWYLTAEAFDLWGQGTMVTVSS VL: SYILTQPPSVSVAPGETATITCGGNLIGSRLVHWYQQKPGQAPVLVIYDDSDRPSRIPERFSGSNIGNTATLTISDVEAGDEADYYCQVWDHYSNHYVFGGGTKLTVL | 1.4e+06 |
| BDG38.096 (antibody, V domains shown, IgG1) VH: QMQLVESGGGVVQPGRSLRLSCAASGFEFRTYGMHWVRQAPGKGLEWVAVIWDDGSNTHYADSVKGRFTITRDNSKNTLNLQMNSLRVEDTAVYYCVRAPQWYLTAEAFDLWGQGTMVTVSS VL: SYILTQPPSVSVAPGETARITCGGNLIGARLVHWYQQKPGQAPVLVIYDDSDRPSRIPERFSGSNIGNTATLTISRVEEGDEADYYCQVWDYSSDSMVFGGGTKLTVL | 6.33e+06 |
| BDG38.107 (antibody, V domains shown, IgG1) VH: QMQLVESGGGVVQPGRSLTLSCAASGFEFRTYGMHWVRQAPGKGLEWVGVIWYDGSNTHYADSVKGRFTITRDNSKNTLNLQMNSLRAEDTAVYYCVRAPQWYLTAEAFDLWGQGTMVTVSS VL: SYILTQPPSVSVAPGQTATITCGGNLIGARLVHWYQQKPGQAPVLVIYDDSDRPSRIPERFSGSNIGNTATLTIERVEEGDEADYYCQVWDYSSDSYVFGGGTKLTVL | 541000 |
| BDG38.106 (antibody, V domains shown, IgG1) VH: QMQLVESGGGVVQPGRSLTLSCAASGFEFRTYGMHWVRQAPGKGLEWVAVIWDDGSNTVYADSVKGRFTITRDNSKNTLNLQMNSLRVEDTAVYYCVRAPQWYLTAEAFDLWGQGTMVTVSS VL: SYILTQPPSVSVAPGQTATITCGGNLIGSRLVHWYQQKPGQAPVLVIYDDSDRPSRIPERFSGSNIGNTATLTIEDVEEGDEADYYCQVWDHYSDHMVFGGGTKLTVL | 4.9e+06 |
| BDG38.116 (antibody, V domains shown, IgG1) VH: QMQLVESGGGVVQPGRSLTLSCAASGFEFRTYGMHWVRQAPGKGLEWVAVIWDDGSNTHYADSVKGRFTITRDNSKNTLNLQMNSLRVEDTAVYYCVRAPQWYLTAEAFDLWGQGTMVTVSS VL: SYVLTQPPSVSVAPGQTATITCGGNLIGARLVHWYQQKPGQAPVLVIYDDSDRPSRIPERFSGSNIGNTATLTIERVEAGDEADYYCQVWDYYSDTMVFGGGTKLTVL | 5.44e+06 |

Per the records, this binder ( BDG38.092 (antibody, V domains shown, IgG1) VH: QMQLVESGGGVVQPGRSLTLSCAASGFEFRTYGMHWVRQAPGKGLEWLAVIWDDGSNTHYADSVKGRFTITRDNSKNTLNLQMNSLRVEDTAVYYCVRAPQWYLTAEAFDLWGQGTMVTVSS VL: SYVLTQPPSVSVAPGETATITCGGNLIGARLVHWYQQKPGQAPVLVIYDDSDRPSRIPERFSGSNIGNTATLTISDVEEGDEADYYCQVWDYYSDHMVFGGGTKLTVL ) has kon equal to 6.28e+06
